The values you see were collected from ChEMBL document CHEMBL1201862.

biological target: UniProt:P08684
Sequence (P08684 whole entry): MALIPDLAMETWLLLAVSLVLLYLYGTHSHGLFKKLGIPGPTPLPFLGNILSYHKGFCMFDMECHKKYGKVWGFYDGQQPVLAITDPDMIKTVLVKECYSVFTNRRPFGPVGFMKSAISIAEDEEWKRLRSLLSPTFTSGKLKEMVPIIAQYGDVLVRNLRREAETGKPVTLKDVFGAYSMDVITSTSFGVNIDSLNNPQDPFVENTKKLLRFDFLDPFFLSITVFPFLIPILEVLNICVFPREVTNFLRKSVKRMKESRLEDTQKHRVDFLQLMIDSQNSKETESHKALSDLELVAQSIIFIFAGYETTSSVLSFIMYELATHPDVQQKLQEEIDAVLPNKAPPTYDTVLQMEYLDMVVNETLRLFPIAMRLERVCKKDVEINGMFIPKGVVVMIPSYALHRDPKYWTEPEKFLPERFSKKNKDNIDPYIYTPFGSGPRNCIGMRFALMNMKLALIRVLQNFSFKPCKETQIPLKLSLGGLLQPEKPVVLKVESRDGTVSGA
Here, each record is paired with measured AC50 data.

Here are 5 molecules together with their reported answers.
• Cc1ccc([N+](=O)[O-])cc1NC(=S)NC(=O)CC(C)(C)C = 22.4 µM (inconclusive)
• CCC(C)OC(=O)C1=C(C)NC(=O)CC1c1ccccc1OC (stereo unspecified) = 39.8 µM (inconclusive)
• COCCn1c(=O)c(-c2ccc(OC)cc2)nc2cnc(OCc3ccccc3)nc21 = 25.1 µM (inconclusive)
• Cc1ccc(C(=N)NOC(=O)Cc2cccs2)cc1 = 28.2 µM (inconclusive)
• Cc1cccc(CNc2ccnc(-c3ccccc3C(F)(F)F)n2)c1 = 3.16 µM (inconclusive)

Which AC50 value belongs to CC(=O)[C@@H]1CC[C@H]2[C@H]3CC[C@H]4C[C@@H](O)CC[C@]4(C)[C@@H]3CC[C@]12C ?
15.8 µM (inconclusive)

Next up: Cc1nc2cnc(N3CCN(C)CC3)nc2n(Cc2cccs2)c1=O
25.1 µM (inconclusive)

Next up: O=S(=O)(c1ccccc1)N1CCC[C@@]2(CCN(Cc3ccccc3)C2)C1
1.26 µM (inconclusive)
